Origin of measurements: patent US20190300882A1

Tested on: KELLY cells
PROTOCOL DETAILS: Primary functional miRNA mimic screen, CellTiter-Glo cell viability
Assay type: cell-based
TEST SETTINGS: miRNA mimic 25 nM alone, 144 hours post-transfection
Reported Primary screen Viability (% of control) KELLY values for the following substances.

In the examples that follow, each entry is paired with its recorded Primary screen Viability (% of control) KELLY.
[Q] Recorded Primary screen Viability (% of control) KELLY for hsa-miR-544a (guide AUUCUGCAUUUUUAGCAAGUUC; chemistry not given here; listed as Homo sapiens) , please?
[A] 7 % of control

[Q] Recorded Primary screen Viability (% of control) KELLY for hsa-miR-491-3p (guide CUUAUGCAAGAUUCCCUUCUAC; chemistry not given here; listed as Homo sapiens) , please?
[A] 12 % of control

[Q] Recorded Primary screen Viability (% of control) KELLY for hsa-miR-1262 (AUGGGUGAAUUUGUAGAAGGAU; chemistry not given here; listed as Homo sapiens) , please?
[A] 8 % of control

[Q] Recorded Primary screen Viability (% of control) KELLY for hsa-miR-148b-5p (AAGUUCUGUUAUACACUCAGGC; chemistry not given here; listed as Homo sapiens) , please?
[A] 5 % of control

[Q] Recorded Primary screen Viability (% of control) KELLY for hsa-miR-550a-3p (guide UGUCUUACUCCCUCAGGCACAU; chemistry not given here; listed as Homo sapiens) , please?
[A] 4 % of control

Continuing:
[Q] Recorded Primary screen Viability (% of control) KELLY for hsa-miR-1231 (GUGUCUGGGCGGACAGCUGC; chemistry not given here; listed as Homo sapiens) , please?
[A] 36 % of control

[Q] Recorded Primary screen Viability (% of control) KELLY for hsa-miR-489 (guide GUGACAUCACAUAUACGGCAGC; chemistry not given here; listed as Homo sapiens) , please?
[A] 5 % of control
